Assay: Pharmacokinetics of intraperitoneal or intravenous injection in CD1 mice (plasma, LC/MS/MS)
Assay type: in vivo
Details: male, CD1, mouse, plasma, iv, 1 mg/kg, IV 1.0 mg/kg, 0.25 h, read-out: Conc. Mean

{"compound": "COc1cc2c(Oc3ccc(NC(=O)C4(C(=O)Nc5ccc(F)cc5)CC4)cc3F)ccnc2cc1OCCCOCCCOCCC(=O)N[C@H](C(=O)N1C[C@H](O)C[C@H]1C(=O)NCc1ccc(-c2scnc2C)cc1)C(C)(C)C [Example 1]", "concentration at 0.25 h (ng/mL)": 691}

---

Assay: Pharmacokinetics of intraperitoneal or intravenous injection in CD1 mice (plasma, LC/MS/MS)
Type: in vivo
Conditions: male, CD1, mouse, plasma, iv, 1 mg/kg, IV 1.0 mg/kg, 8 h, read-out: Conc. Mouse 1

{"compound": "COc1cc2c(Oc3ccc(NC(=O)C4(C(=O)Nc5ccc(F)cc5)CC4)cc3F)ccnc2cc1OCCCOCCCOCCC(=O)N[C@H](C(=O)N1C[C@H](O)C[C@H]1C(=O)NCc1ccc(-c2scnc2C)cc1)C(C)(C)C [Example 1]", "result-units": "ng/mL", "concentration at 8 h": 10.1}
